Data credit: ChEMBL document CHEMBL5506024

- experimentalSystem: UniProt Q9GZQ6
- Sequence (Q9GZQ6 whole entry): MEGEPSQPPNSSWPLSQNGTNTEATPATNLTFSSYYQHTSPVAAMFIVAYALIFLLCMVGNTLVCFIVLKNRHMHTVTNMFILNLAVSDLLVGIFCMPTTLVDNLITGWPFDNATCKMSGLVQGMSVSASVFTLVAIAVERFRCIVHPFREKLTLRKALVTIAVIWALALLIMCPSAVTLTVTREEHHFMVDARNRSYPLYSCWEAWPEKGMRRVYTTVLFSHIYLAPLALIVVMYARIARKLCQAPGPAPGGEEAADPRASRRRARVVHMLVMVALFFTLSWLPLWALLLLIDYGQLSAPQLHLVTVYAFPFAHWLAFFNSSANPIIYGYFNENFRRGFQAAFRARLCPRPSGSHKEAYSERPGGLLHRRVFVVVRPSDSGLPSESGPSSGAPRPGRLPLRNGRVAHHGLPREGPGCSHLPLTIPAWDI
- procedureText: Antagonist potency at human NPFFR1 expressed in CHO cell membrane assessed as inhibition of NPVF induced cAMP response incubated for 1 hr by Topcount counting method
- Type: functional, cell membranes
- measurementConditions: read-out: pA2 (converted)
Numbered stars: 1 amine (or outer) side, 2 acyl side, 3 side chain; on linkers, the order of the positions; unused ones are H or OH. Square brackets hold non-standard residues; d marks the D form. Peptide text beside a SMILES is read from it. Nva(5-(4-Bn-piperidin-1-yl)) = N[C@@H](CCCN1CCC(Cc2ccccc2)CC1)C(=O)O; X1 = O=C1[C@@H](N[*:1])Cc2ccccc2CN1CCC(=O)[*:2]; Dmt = Cc1cc(O)cc(C)c1C[C@H](N)C(=O)O
metricName: Kb (µM)
Give your result in µM as a bare value.

Past entries and their recorded results:
compound: Cc1cc(O)cc(C)c1C[C@H](N)C(=O)N(C)[C@H](C)C(=O)N[C@H]1Cc2c(ccc3ccccc23)CN(CC(=O)N[C@@H](CCCN2CCC(Cc3ccccc3)CC2)C(=O)N[C@@H](Cc2ccccc2)C(N)=O)C1=O
experimentalSystem: UniProt Q9GZQ6
valueUnits: µM
Kb: 5.89
--
compound: Cc1cc(O)cc(C)c1C[C@H](NC(=N)N)C(=O)N[C@H](CCCNC(=N)N)C(=O)N[C@H]1Cc2ccccc2CN(CCC(=O)N[C@@H](CCCN2CCC(Cc3ccccc3)CC2)C(=O)N[C@@H](Cc2ccccc2)C(N)=O)C1=O
experimentalSystem: UniProt Q9GZQ6
valueUnits: µM
Kb: 0.24
--
compound: Cc1cc(O)cc(C)c1C[C@H](N)C(=O)N(C)[C@H](C)C(=O)N[C@H]1Cc2c(ccc3ccccc23)CN(CCC(=O)N[C@@H](CCCN2CCC(Cc3ccccc3)CC2)C(=O)N[C@@H](Cc2ccccc2)C(N)=O)C1=O
experimentalSystem: UniProt Q9GZQ6
valueUnits: µM
Kb: 2.45

// sample Cc1cc(O)cc(C)c1C[C@H](N)C(=O)N1CCC[C@@H]1C(=O)N[C@H]1Cc2ccccc2CN(CCC(=O)N[C@@H](CCCN2CCC(Cc3ccccc3)CC2)C(=O)N[C@@H](Cc2ccccc2)C(N)=O)C1=O (H-[Dmt][dP][X1][Nva(5-(4-Bn-piperidin-1-yl))]F-NH2) , its Kb was 6.31

----------
- experimentalSystem: UniProtKB P35372
- Sequence (P35372 whole entry): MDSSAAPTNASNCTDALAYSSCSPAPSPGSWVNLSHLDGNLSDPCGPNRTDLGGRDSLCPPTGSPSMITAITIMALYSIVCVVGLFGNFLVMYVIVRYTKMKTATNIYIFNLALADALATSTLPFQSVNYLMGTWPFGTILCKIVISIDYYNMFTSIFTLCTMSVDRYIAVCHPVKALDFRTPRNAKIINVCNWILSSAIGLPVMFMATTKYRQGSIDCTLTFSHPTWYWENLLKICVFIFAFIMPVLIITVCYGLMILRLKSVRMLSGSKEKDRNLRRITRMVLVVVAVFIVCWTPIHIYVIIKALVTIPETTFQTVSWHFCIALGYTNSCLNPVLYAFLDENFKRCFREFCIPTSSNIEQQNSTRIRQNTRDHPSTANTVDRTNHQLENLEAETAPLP
- procedureText: Agonist activity at human MOP expressed in HEK293 cells coexpressing GloSensor-20F assessed as inhibition of forskolin-induced cAMP accumulation relative to control
- Format: functional, cell-based
- measurementConditions: filed as agonist
Numbered stars: 1 amine (or outer) side, 2 acyl side, 3 side chain; on linkers, the order of the positions; unused ones are H or OH. Square brackets hold non-standard residues; d marks the D form. Peptide text beside a SMILES is read from it. Nva(5-(4-Bn-piperidin-1-yl)) = N[C@@H](CCCN1CCC(Cc2ccccc2)CC1)C(=O)O; X1 = O=C1[C@@H](N[*:1])Cc2ccccc2CN1CCC(=O)[*:2]; Dmt = Cc1cc(O)cc(C)c1C[C@H](N)C(=O)O; βAla = NCCC(=O)O
metricName: Emax (%)
Give your result in % as a bare value.

Past entries and their recorded results:
molecule: Cc1cc(O)cc(C)c1C[C@H](N)C(=O)N[C@H](CCCNC(=N)N)C(=O)N[C@H]1Cc2ccccc2CN(CCC(=O)N[C@@H](CCCN2CCC(Cc3ccccc3)CC2)C(=O)N[C@@H](Cc2c[nH]c3ccccc23)C(N)=O)C1=O (H-[Dmt][dR][X1][Nva(5-(4-Bn-piperidin-1-yl))]W-NH2)
experimentalSystem: UniProtKB P35372
valueUnits: %
Emax: 81
--
molecule: Cc1cc(O)cc(C)c1C[C@H](N)C(=O)N[C@H](CCCNC(=N)N)C(=O)N[C@H](Cc1ccccc1)C(=O)N(C)CCC(=O)N[C@@H](CCCN1CCC(Cc2ccccc2)CC1)C(=O)N[C@@H](Cc1ccccc1)C(N)=O
experimentalSystem: UniProtKB P35372
valueUnits: %
Emax: 65
--
molecule: Cc1cc(O)cc(C)c1C[C@H](N)C(=O)N(C)[C@H](C)C(=O)N[C@H]1Cc2c(ccc3ccccc23)CN(CC(=O)N[C@@H](CCCN2CCC(Cc3ccccc3)CC2)C(=O)N[C@@H](Cc2ccccc2)C(N)=O)C1=O
experimentalSystem: UniProtKB P35372
valueUnits: %
Emax: 73

Kindly consider the entry below.
// sample Cc1cc(O)cc(C)c1C[C@H](N)C(=O)N[C@H](CCCNC(=N)N)C(=O)N[C@H]1Cc2ccccc2CN(CCC(=O)N[C@@H](CCCN2CCC(Cc3ccccc3)CC2)C(=O)N[C@@H](Cc2ccccc2)C(=O)NCCC(N)=O)C1=O (H-[Dmt][dR][X1][Nva(5-(4-Bn-piperidin-1-yl))]F[βAla]-NH2) , its Emax was 95
